- ASSAYED SYSTEM: histamine H3 receptor (Homo sapiens)
- Construct: expressed in transfected cells; host or cells: CHO K1 cells with pSwitch/pGeneH3 (GeneSwitch, mifepristone-induced), clone 3H3; membrane preparation
- Sequence (Q9Y5N1 whole entry, species assumed): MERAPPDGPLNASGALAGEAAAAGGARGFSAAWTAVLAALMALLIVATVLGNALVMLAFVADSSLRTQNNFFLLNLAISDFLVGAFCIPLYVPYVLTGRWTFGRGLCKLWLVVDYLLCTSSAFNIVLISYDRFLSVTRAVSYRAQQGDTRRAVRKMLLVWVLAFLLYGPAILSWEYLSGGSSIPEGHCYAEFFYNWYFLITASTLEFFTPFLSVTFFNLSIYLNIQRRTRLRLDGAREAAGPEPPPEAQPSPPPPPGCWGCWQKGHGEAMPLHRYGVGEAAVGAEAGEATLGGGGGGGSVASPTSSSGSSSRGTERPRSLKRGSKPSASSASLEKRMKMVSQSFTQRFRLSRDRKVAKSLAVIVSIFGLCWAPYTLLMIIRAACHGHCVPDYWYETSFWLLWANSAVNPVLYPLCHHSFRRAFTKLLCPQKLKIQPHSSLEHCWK
- ASSAY NAME: Histamine H3 functional antagonist assay (GTPγS, membranes)
- Format: biochemical
- REPORTED CONDITIONS: CHO K1 membranes, [35S]-GTPγS, histamine at EC80; read-out: average pKi (pKb) at H3 (converted)
// reported Ki per item

TEST SMILES	Ki
CCCCc1cc(OC2CCN(CCCCCNC(=O)CC)CC2)c2ncccc2c1	> 316 nM
CCCCc1cc(OC2CCN(CCC(=O)N(CC)CC)CC2)c2ncccc2c1	> 316 nM
CCCCc1cc(OC2CCN(CC(=O)NC(C)C)CC2)c2ncccc2c1	> 3160 nM

###

- ASSAYED SYSTEM: human H1 receptor (Homo sapiens, UniProt P35367)
- Construct: expressed in transfected cells
- Sequence (P35367 whole entry): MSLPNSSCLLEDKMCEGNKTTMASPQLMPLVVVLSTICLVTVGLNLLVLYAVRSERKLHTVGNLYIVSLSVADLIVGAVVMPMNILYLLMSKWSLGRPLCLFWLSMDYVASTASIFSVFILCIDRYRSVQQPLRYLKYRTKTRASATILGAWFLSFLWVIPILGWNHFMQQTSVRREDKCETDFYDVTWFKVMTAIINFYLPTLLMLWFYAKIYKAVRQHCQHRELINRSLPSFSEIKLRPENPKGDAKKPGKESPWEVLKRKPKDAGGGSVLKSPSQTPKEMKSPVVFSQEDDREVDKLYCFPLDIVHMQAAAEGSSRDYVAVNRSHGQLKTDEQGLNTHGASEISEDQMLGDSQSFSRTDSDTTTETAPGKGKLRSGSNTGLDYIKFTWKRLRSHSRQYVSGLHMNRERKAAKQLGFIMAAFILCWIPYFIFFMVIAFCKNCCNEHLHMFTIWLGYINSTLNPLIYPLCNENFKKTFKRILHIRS
- ASSAY NAME: Histamine H1 functional antagonist assay: determination of functional pKi values (FLIPR)
- Format: cell-based
- REPORTED CONDITIONS: CHO cells expressing human H1 receptor, histamine at EC80, read-out: average pKi (pKb) at H1 (converted)
// reported Ki per item

TEST SMILES	Ki
CCCCc1cc(OC2CCN(CC(=O)NCCCOC)CC2)c2ncccc2c1	< 100 nM
CCCCc1cc(OC2CCN(CC(=O)NC(C)C)CC2)c2ncccc2c1	< 100 nM
CCCCc1cc(OC2CCN(C[C@H]3CC[C@H](C(=O)N4CCCC4)CC3)CC2)c2ncccc2c1	< 10 nM
CCCCc1cc(OC2CCN(CCCCC(=O)NCCCOC)CC2)c2ncccc2c1	< 100 nM
CCCCc1cc(OC2CCN(CC(=O)NCCOC)CC2)c2ncccc2c1	< 100 nM
CCCCc1cc(OC2CCN(CCCCCNC(=O)CC)CC2)c2ncccc2c1	< 10 nM

###

- ASSAYED SYSTEM: human H1 receptor (Homo sapiens, UniProt P35367)
- Construct: expressed in transfected cells
- ASSAY NAME: Histamine H1 functional antagonist assay: determination of functional pKi values (FLIPR)
- Format: cell-based
- REPORTED CONDITIONS: CHO cells expressing human H1 receptor, histamine at EC80, read-out: average pKi (pKb) at H1 (converted)
// reported Ki per item

COMPOUND	Ki
CCCCCCc1cc(OC2CCN(C[C@H]3CC[C@H](C(=O)NCC(C)(C)C)CC3)CC2)c2ncccc2c1 [Example 52]	< 100 nM
CCCCc1cc(O[C@H]2CCN(CCC(=O)N(CC)CC)C2)c2ncccc2c1 [Example 40]	~1000 nM
CCCCc1cc(O[C@@H]2CCN(CCC(=O)N(CC)CC)C2)c2ncccc2c1 [Example 35]	< 10 nM
CCCCc1cc(OC2CCN(CCCCNC(=O)CCC)CC2)c2ncccc2c1 [Example 65]	< 10 nM
CCCCc1cc(OC2CCN(CCCC(=O)NC(C)(C)C)CC2)c2ncccc2c1 [Example 6]	< 10 nM
CCCCc1cc(OC2CCN(CC3CCN(C(=O)CC)CC3)CC2)c2ncccc2c1 [Example 2]	< 100 nM
CCCCc1cc(OC2CCN(C[C@H]3CC[C@H](C(=O)NC(C)C)CC3)CC2)c2ncccc2c1 [Example 42]	< 100 nM
CCCCc1cc(OC2CCN(CC(=O)NCCC)CC2)c2ncccc2c1 [Example 10]	> 1000 nM

###

- ASSAYED SYSTEM: histamine H3 receptor (Homo sapiens)
- Construct: expressed in transfected cells; host or cells: CHO K1 cells with pSwitch/pGeneH3 (GeneSwitch, mifepristone-induced), clone 3H3; membrane preparation
- ASSAY NAME: Histamine H3 functional antagonist assay (GTPγS, membranes)
- Assay type: biochemical
- REPORTED CONDITIONS: CHO K1 membranes, [35S]-GTPγS, histamine at EC80; read-out: average pKi (pKb) at H3 (converted)
// reported Ki per item

TEST SMILES	ASSAYED SYSTEM	Ki
CCCCc1cc(OC2CCN(CCCC(=O)NC(C)C)CC2)c2ncccc2c1	histamine H3 receptor (Homo sapiens)	> 3160 nM
CCCCc1cc(OC2CCN(CCCCCNC(=O)C3CCCCC3)CC2)c2ncccc2c1	histamine H3 receptor (Homo sapiens)	> 316 nM
CCCCc1cc(OC2CCN(CCCCNC(=O)CCOC)CC2)c2ncccc2c1	histamine H3 receptor (Homo sapiens)	> 316 nM
CCCCc1cc(OC2CCN(CCCCNC(=O)C(C)C)CC2)c2ncccc2c1	histamine H3 receptor (Homo sapiens)	> 316 nM
CCCCc1cc(OC2CCN(CC3CCN(C(=O)CC)CC3)CC2)c2ncccc2c1	histamine H3 receptor (Homo sapiens)	> 316 nM
CCCCc1cc(OC2CCN(CCC(=O)NCC)CC2)c2ncccc2c1	histamine H3 receptor (Homo sapiens)	> 3160 nM
CCCCc1cc(OC2CCN(C[C@H]3CC[C@H](C(=O)NCc4ccc(C)cc4)CC3)CC2)c2ncccc2c1	histamine H3 receptor (Homo sapiens)	> 316 nM
CCCCc1cc(OC2CCN(CCCC(=O)NCC)CC2)c2ncccc2c1	histamine H3 receptor (Homo sapiens)	> 3160 nM
CCCCc1cc(OC2CCN(CC(=O)NC(C)(C)C)CC2)c2ncccc2c1	histamine H3 receptor (Homo sapiens)	> 3160 nM
CCCCCc1cc(OC2CCN(CCCNC(=O)C(C)(C)C)CC2)c2ncccc2c1	histamine H3 receptor (Homo sapiens)	> 316 nM
CCCCCCc1cc(OC2CCN(C[C@H]3CC[C@H](C(=O)N(CC)CC)CC3)CC2)c2ncccc2c1	histamine H3 receptor (Homo sapiens)	> 316 nM
CCCCc1cc(OC2CCN(CCCCNC(C)=O)CC2)c2ncccc2c1	histamine H3 receptor (Homo sapiens)	> 316 nM
CCCCc1cc(OC2CCN(CCCCCNC(=O)C(C)(C)C)CC2)c2ncccc2c1	histamine H3 receptor (Homo sapiens)	> 316 nM
CCCCc1cc(OC2CCN(CCCC(=O)NCCOC)CC2)c2ncccc2c1	histamine H3 receptor (Homo sapiens)	> 3160 nM
CCCCc1cc(OC2CCN(C[C@H]3CC[C@H](C(=O)NCCC(C)C)CC3)CC2)c2ncccc2c1	histamine H3 receptor (Homo sapiens)	> 316 nM
CCCCc1cc(O[C@H]2CCN(CCC(=O)N3CCCCC3)C2)c2ncccc2c1	histamine H3 receptor (Homo sapiens)	~100 nM
CCCCc1cc(OC2CCN(C[C@H]3CC[C@H](C(=O)N4CCCCC4)CC3)CC2)c2ncccc2c1	histamine H3 receptor (Homo sapiens)	> 316 nM
CCCCCCc1cc(OC2CCN(C[C@H]3CC[C@H](C(=O)N4CCOCC4)CC3)CC2)c2ncccc2c1	histamine H3 receptor (Homo sapiens)	> 316 nM
CCCCc1cc(OC2CCN(CCNC(=O)CCOC)CC2)c2ncccc2c1	histamine H3 receptor (Homo sapiens)	> 316 nM
CCCCCc1cc(OC2CCN(CCCC(=O)NC(C)(C)C)CC2)c2ncccc2c1	histamine H3 receptor (Homo sapiens)	> 316 nM
CCCCc1cc(OC2CCN(C[C@H]3CC[C@H](C(=O)NCC(C)(C)C)CC3)CC2)c2ncccc2c1	histamine H3 receptor (Homo sapiens)	> 316 nM
CCCCc1cc(OC2CCN(C[C@H]3CC[C@H](C(=O)N4CCOCC4)CC3)CC2)c2ncccc2c1	histamine H3 receptor (Homo sapiens)	> 316 nM
CCCCc1cc(OC2CCN(CCC(=O)NCCCOC)CC2)c2ncccc2c1	histamine H3 receptor (Homo sapiens)	> 3160 nM
CCCCc1cc(OC2CCN(CCCC(=O)N3CCCCC3)CC2)c2ncccc2c1	histamine H3 receptor (Homo sapiens)	> 3160 nM
CCCCCc1cc(OC2CCN(CCCNC(=O)CC)CC2)c2ncccc2c1	histamine H3 receptor (Homo sapiens)	> 316 nM
CCCCc1cc(O[C@@H]2CCN(CCC(=O)N(CC)CC)C2)c2ncccc2c1	histamine H3 receptor (Homo sapiens)	> 316 nM
CCCCc1cc(O[C@H]2CCN(CCCC(=O)N3CCCCC3)C2)c2ncccc2c1	histamine H3 receptor (Homo sapiens)	> 316 nM
CCCCc1cc(OC2CCN(CCCCC(=O)NCCOC)CC2)c2ncccc2c1	histamine H3 receptor (Homo sapiens)	> 3160 nM
CCCCc1cc(OC2CCN(CCCCNC(=O)CC)CC2)c2ncccc2c1	histamine H3 receptor (Homo sapiens)	> 316 nM
CCCCCCc1cc(OC2CCN(C[C@H]3CC[C@H](C(=O)N4CCCC4)CC3)CC2)c2ncccc2c1	histamine H3 receptor (Homo sapiens)	> 316 nM
CCCCc1cc(OC2CCN(CCCCC(=O)NC(C)(C)C)CC2)c2ncccc2c1	histamine H3 receptor (Homo sapiens)	> 3160 nM
CCCCc1cc(OC2CCN(CCCNC(=O)C(C)C)CC2)c2ncccc2c1	histamine H3 receptor (Homo sapiens)	> 316 nM
CCCCc1cc(OC2CCN(CCCCC(=O)NCCC)CC2)c2ncccc2c1	histamine H3 receptor (Homo sapiens)	> 3160 nM
CCCCc1cc(OC2CCN(C[C@H]3CC[C@H](C(=O)N4CCCC4)CC3)CC2)c2ncccc2c1	histamine H3 receptor (Homo sapiens)	> 316 nM

// provenance: patent US20100222349A1
